test-target: CREB1 (Homo sapiens, UniProt P16220)
Construct: made in house
procedure-summary: Direct-binding FRET assay
measurement-conditions: 23°C; C-terminal fluorescein design as donor, TAMRA target titrated; read-out: Kd
Where no end group is shown, it is not given here.
experimental-readout: Kd

Recorded Kd (sequence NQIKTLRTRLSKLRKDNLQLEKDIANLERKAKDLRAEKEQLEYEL [ATF4-d1] ): > 1 µM

---

test-target: JUNB (Homo sapiens)
Construct: made in house
Sequence (P17275 268-331 limits assumed): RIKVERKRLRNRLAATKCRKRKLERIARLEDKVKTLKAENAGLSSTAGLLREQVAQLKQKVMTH
procedure-summary: Direct-binding FRET assay
measurement-conditions: 37°C; C-terminal rhodamine design; mean or single; read-out: Kd
Where no end group is shown, it is not given here.
experimental-readout: Kd

# batch size: 3; output Kd per entry
1. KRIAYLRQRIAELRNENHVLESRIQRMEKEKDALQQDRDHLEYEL [ATF5-d1]
2. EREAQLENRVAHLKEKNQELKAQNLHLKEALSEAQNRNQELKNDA [XBP1-d1]
3. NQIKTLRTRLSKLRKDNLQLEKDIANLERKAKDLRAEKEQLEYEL [ATF4-d1]

stdout:
1. > 1000 nM
2. > 1000 nM
3. > 1000 nM

---

Exercise: state measured pKd for each of the sequences provided.
test-target: BATF (Homo sapiens, UniProt Q16520)
Construct: made in house
Sequence (Q16520 26-89 limits assumed): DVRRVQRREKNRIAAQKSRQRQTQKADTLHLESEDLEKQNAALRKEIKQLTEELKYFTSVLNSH
procedure-summary: Direct-binding FRET assay
measurement-conditions: 23°C; C-terminal rhodamine design; mean or single; read-out: Kd
Method: The direct binding assay was performed manually in 384-well plates and is similar to a previously described assay. Wells were filled with 20 μL of 1 mM TCEP-HCl. […] Briefly, the Kd of the designed peptide homodimer was experimentally determined and used with previously determined target homodimer Kd values to determine the heterodimer Kd. […] A minimum 15% change in the donor fluorescence upon titrating the acceptor peptide from 0 to 1000 nM was required for a fit to be attempted. […]
pKd: −log10 of the molar value. Where no end group is shown, it is not given here.

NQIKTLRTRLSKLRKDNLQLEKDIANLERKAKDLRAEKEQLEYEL [ATF4-d1] :: < 6.00
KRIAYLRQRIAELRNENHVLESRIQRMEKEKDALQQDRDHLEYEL [ATF5-d1] :: < 5.30

Here's the next entry for you.
Lab entry: BATF (Homo sapiens, UniProt Q16520) assay, sequence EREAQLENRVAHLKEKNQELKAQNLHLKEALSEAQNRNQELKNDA [XBP1-d1] , pKd = < 6.00

---

test-target: CREB1 (Homo sapiens, UniProt P16220)
Construct: made in house
procedure-summary: Direct-binding FRET assay
measurement-conditions: 23°C; C-terminal rhodamine design; mean or single; read-out: Kd
Where no end group is shown, it is not given here.
experimental-readout: Kd (nM)
Give bare numbers, in nM.

Sample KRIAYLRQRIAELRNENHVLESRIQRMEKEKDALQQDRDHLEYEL [ATF5-d1] ; Kd observed: 589

---

test-target: BATF (Homo sapiens, UniProt Q16520)
Construct: made in house
procedure-summary: Direct-binding FRET assay
measurement-conditions: Kd, 37°C; N-terminal rhodamine design; mean or single
Where no end group is shown, it is not given here.
experimental-readout: Kd

Considering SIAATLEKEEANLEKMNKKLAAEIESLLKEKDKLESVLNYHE [JUN-d1] , its Kd with BATF (Homo sapiens, UniProt Q16520) was recorded as > 1000 nM

Source: paper PMC4335062
